Data origin, for the record: patent US20110195900A1

Measured hPTHR-1 EC50 (nM), CRE-luciferase reporter gene assay values are reported for all entries that follow.
Biological target: human parathyroid hormone receptor 1 (human, UniProt Q03431)
Experiment: cell-based or functional assay
Non-standard residues stand in square brackets, D forms with d. No end group written: not given here. 1Nal = N[C@@H](Cc1cccc2ccccc12)C(=O)O; β3hI = CC[C@H](C)[C@H](N)CC(=O)O; β3hF = N[C@H](CC(=O)O)Cc1ccccc1; Nle = CCCC[C@H](N)C(=O)O; Aib = CC(C)(N)C(=O)O; βAla = NCCC(=O)O
outcomeMeasure: hPTHR-1 EC50 (nM), CRE-luciferase reporter gene assay

binder: SVSEIQL[Nle]HNLGKHLNS[β3hI]ERVE[1Nal]LRKLLQDVHKF-NH2 [[Nle^8, β-hIle^18, 1-Nal^23, Leu^27, Lys^33] hPTH (1-34)-NH2]
measValue: 0.15
--
binder: SVSEIQL[Nle]HNLGKHLKS[β3hI]ERVE[1Nal]LRKLLQRVHNF-NH2 [[Nle^8, Lys^16, β-hIle^18, 1-Nal^23, Leu^27, Arg^30] hPTH (1-34)-NH2]
measValue: 0.14
--
binder: SVSEIQL[Nle]HNLGKHLES[β3hI]ERVE[1Nal]LRKLLQDVHNF-NH2 [[Nle^8, Glu^16, β-hIle^18, 1-Nal^23, Leu^27] hPTH (1-34)-NH2]
measValue: 0.16
--
binder: SVSEIQL[Nle]HNL[Aib][Aib]HLNS[β3hI]ERVE[1Nal]LRKLLQDVHNF-NH2 [[Nle^8, Aib^12,13, β-hIle^18, 1-Nal^23, Leu^27] hPTH (1-34)-NH2]
measValue: 0.25
--
binder: SVSEIQL[Nle]HNLGKHLNS[β3hI]ERVE[1Nal]LRKLLQDVHNE-NH2 [[Nle^8, β-hIle^18, 1-Nal^23, Leu^27, Glu^34] hPTH (1-34)-NH2]
measValue: 0.12
--
binder: [Aib]VSEIQL[Nle]HNLGKHLNS[β3hF]ERVE[1Nal]LRKLLQDVHNF-NH2 [[Aib^1, Nle^8, β-hPhe^18, 1-Nal^23, Leu^27 hPTH (1-34)-NH2]
measValue: 0.06
--
binder: SVSEIQL[Nle]HELGKHLNS[β3hI]ERVE[1Nal]LRKLLQDVHNF-NH2 [[Nle^8, Glu^10, β-hIle^18, 1-Nal^23, Leu^27] hPTH (1-34)-NH2]
measValue: 0.13
--
binder: SVSEIQL[Nle]HNLGKHLKS[β3hI]ERVE[1Nal]LRKLLQDVHNF-NH2 [[Nle^8, Lys^16, β-hIle^18, 1-Nal^23, Leu^27] hPTH (1-34)-NH2]
measValue: 0.08
--
binder: SVSEIQL[Nle]HNLGKHLN[βAla][Nle]ERVE[1Nal]LRKLLQDVHNF-NH2 [[Nle^8,18, β-Ala^17, 1-Nal^23, Leu^27] hPTH (1-34)-NH2]
measValue: 0.12
--
binder: SVSEIQL[Nle]HSLGKHLKS[β3hI]ERVE[1Nal]LRKLLQRV-NH2 [[Nle^8, Ser^10, Lys^16, β-hIle^18, 1-Nal^23, Leu^27, Arg^30] hPTH (1-31)-NH2]
measValue: 0.08
--
binder: [Aib]VSEIQL[Nle]HNLGKHLNS[β3hI]ERVE[1Nal]LRKLLQDV-NH2 [[Aib^1, Nle^8, β-hIle^18, 1-Nal^23, Leu^27] hPTH (1-31)-NH2]
measValue: 0.05
